assay: total protein half-life in vivo (active degradation + dilution); higher = more stable protein; conditions: wild type E. coli NCM3722; growth: P-lim chemostat; doubling time 6 h

- input sequence: "MEQRRLASTEWVDIVNEENEVIAQASREQMRAQCLRHRATYIVVHDGMGKILVQRRTETKDFLPGMLDATAGGVVQADEQLLESARREAEEELGIAGVPFAEHGQFYFEDKNCRVWGALFSCVSHGPFALQEDEVSEVCWLTPEEITARCDEFTPDSLKALALWMKRNAKNEAVETETAE"
  total protein half-life in vivo: "3.4 h"
- input sequence: "MSNTYQKRKASKEYGLYNQCKKLNDDELFRLLDDHNSLKRISSARVLQLRGGQDAVRLAIEFCSDKNYIRRDIGAFILGQIKICKKCEDNVFNILNNMALNDKSACVRATAIESTAQRCKKNPIYSPKIVEQSQITAFDKSTNVRRATAFAISVINDKATIPLLINLLKDPNGDVRNWAAFAININKYDNSDIRDCFVEMLQDKNEEVRIEAIIGLSYRKDKRVLSVLCDELKKNTVYDDIIEAAGELGDKTLLPVLDTMLYKFDDNEIITSAIDKLKRS [P0ADK6]"
  total protein half-life in vivo: "2.65 h"

###

experiment: total protein half-life in vivo (active degradation + dilution); higher = more stable protein; settings: wild type E. coli NCM3722; growth: P-lim chemostat; doubling time 12 h

- input sequence: "MKLTLKNLSMAIMMSTIVMGSSAMAADSNEKIVIAHRGASGYLPEHTLPAKAMAYAQGADYLEQDLVMTKDDNLVVLHDHYLDRVTDVADRFPDRARKDGRYYAIDFTLDEIKSLKFTEGFDIENGKKVQTYPGRFPMGKSDFRVHTFEEEIEFVQGLNHSTGKNIGIYPEIKAPWFHHQEGKDIAAKTLEVLKKYGYTGKDDKVYLQCFDADELKRIKNELEPKMGMELNLVQLIAYTDWNETQQKQPDGSWVNYNYDWMFKPGAMKQVAEYADGIGPDYHMLIEETSQPGNIKLTGMVQDAQQNKLVVHPYTVRSDKLPEYTPDVNQLYDALYNKAGVNGLFTDFPDKAVKFLNKE"
  u: "h"
  total protein half-life in vivo: 11.7
- input sequence: "MKRNLLSSAIIVAIMSLGLTGCDDKKAETETLPPANSQPAAPAPEAKPTEAPVAKAEAKPETPAQPVVDEQAVFDEKMDVYIKCYNKLQIPVQRSLARYADWLKDFKQGPTGEERTVYGIYGISESNLAECEKGVKSAVALTPALQPIDGVAVSYIDAAVALGNTINEMDKYYTQENYKDDAFAKGKTLHQTFLKNLEAFEPVAESYHAAIQEINDKRQLAELKNIEEREGKTFHYYSLAVMISAKQINNLISQDKFDAEAAMKKVSELETLVAQAKEADKGGMNFSFINSAGQYQLEAKKYVRRIRDKVPYSDWDKEQLQDANSSWMVEDSFPRALREYNEMVDDYNSLR"
  u: "h"
  total protein half-life in vivo: 10
- input sequence: "MNKHTEHDTREHLLATGEQLCLQRGFTGMGLSELLKTAEVPKGSFYHYFRSKEAFGVAMLERHYAAYHQRLTELLQSGEGNYRDRILAYYQQTLNQFCQHGTISGCLTVKLSAEVCDLSEDMRSAMDKGARGVIALLSQALENGRENHCLTFCGEPLQQAQVLYALWLGANLQAKISRSFEPLENALAHVKNIIATPAV"
  u: "h"
  total protein half-life in vivo: 12.7

###

assay: total protein half-life in vivo (active degradation + dilution); higher = more stable protein; details: E. coli NCM3722 delta-clpP delta-lon delta-hslV; growth: N-lim chemostat; doubling time 6 h
Classification field: enter class 1 for total protein half-life in vivo values not below 5 h, class 0 for values below it.

- input sequence: "MEKLRVGIVFGGKSAEHEVSLQSAKNIVDAIDKSRFDVVLLGIDKQGQWHVSDASNYLLNADDPAHIALRPSATSLAQVPGKHEHQLIDAQNGQPLPTVDVIFPIVHGTLGEDGSLQGMLRVANLPFVGSDVLASAACMDKDVTKRLLRDAGLNIAPFITLTRANRHNISFAEVESKLGLPLFVKPANQGSSVGVSKVTSEEQYAIAVDLAFEFDHKVIVEQGIKGREIECAVLGNDNPQASTCGEIVLTSDFYAYDTKYIDEDGAKVVVPAAIAPEINDKIRAIAVQAYQTLGCAGMARVDVFLTPENEVVINEINTLPGFTNISMYPKLWQASGLGYTDLITRLIELALERHAADNALKTTM [P0A6J8]"
  group label: "class 0"
- input sequence: "MNMKTIEDVFIHLLSDTYSAEKQLTRALAKLARATSNEKLSQAFHAHLEETHGQIERIDQVVESESNLKIKRMKCVAMEGLIEEANEVIESTEKNEVRDAALIAAAQKVEHYEIASYGTLATLAEQLGYRKAAKLLKETLEEEKATDIKLTDLAINNVNKKAENKA"
  group label: "class 1"
- input sequence: "MTHVCSVILIRRSFDIYHEQQKISLHNESILLLEKNLADDFAFCSPDTRRLDIDELTVCHYLQNIRQLPRNLGLHSKDRLLINQSPPMPLVTAIFDSFNESGVNSPILSNMLYLSCLSMFSHKKELIPLLFNSISTVSGKVERLISFDIAKRWYLRDIAERMYTSESLIKKKLQDENTCFSKILLASRMSMARRLLELRQIPLHTIAEKCGYSSTSYFINTFRQYYGVTPHQFAQHSPGTFS"
  group label: "class 1"
- input sequence: "MHGNSEMQKINQTSAMPEKTDVHWSGRFSVAPMLDWTDRHCRYFLRLLSRNTLLYTEMVTTGAIIHGKGDYLAYSEEEHPVALQLGGSDPAALAQCAKLAEARGYDEINLNVGCPSDRVQNGMFGACLMGNAQLVADCVKAMRDVVSIPVTVKTRIGIDDQDSYEFLCDFINTVSGKGECEMFIIHARKAWLSGLSPKENREIPPLDYPRVYQLKRDFPHLTMSINGGIKSLEEAKAHLQHMDGVMVGREAYQNPGILAAVDREIFGSSDTDADPVAVVRAMYPYIERELSQGTYLGHITRHMLGLFQGIPGARQWRRYLSENAHKAGADINVLEHALKLVADKR"
  group label: "class 0"
- input sequence: "MTNLNYQQTHFVMSAPDIRHLPSDTGIEVAFAGRSNAGKSSALNTLTNQKSLARTSKTPGRTQLINLFEVADGKRLVDLPGYGYAEVPEEMKRKWQRALGEYLEKRQSLQGLVVLMDIRHPLKDLDQQMIEWAVDSNIAVLVLLTKADKLASGARKAQLNMVREAVLAFNGDVQVETFSSLKKQGVDKLRQKLDTWFSEMQPVEETQDGE [P0A6P7]"
  group label: "class 1"
- input sequence: "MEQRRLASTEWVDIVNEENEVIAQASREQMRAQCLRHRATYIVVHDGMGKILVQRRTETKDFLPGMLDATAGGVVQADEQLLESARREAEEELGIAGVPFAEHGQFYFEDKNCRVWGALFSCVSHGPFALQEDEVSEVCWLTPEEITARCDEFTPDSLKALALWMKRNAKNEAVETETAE"
  group label: "class 1"

###

test: total protein half-life in vivo (active degradation + dilution); higher = more stable protein; details: wild type E. coli NCM3722; growth: C-lim chemostat; doubling time 3 h
Parameter: total protein half-life in vivo. Scope: all listed entries.

- input sequence: "MFDIGFSELLLVFIIGLVVLGPQRLPVAVKTVAGWIRALRSLATTVQNELTQELKLQEFQDSLKKVEKASLTNLTPELKASMDELRQAAESMKRSYVANDPEKASDEAHTIHNPVVKDNEAAHEGVTPAAAQTQASSPEQKPETTPEPVVKPAADAEPKTAAPSPSSSDKP"
  total protein half-life in vivo / h: 2.57
- input sequence: "MTDNNTALKKAGLKVTLPRLKILEVLQEPDNHHVSAEDLYKRLIDMGEEIGLATVYRVLNQFDDAGIVTRHNFEGGKSVFELTQQHHHDHLICLDCGKVIEFSDDSIEARQREIAAKHGIRLTNHSLYLYGHCAEGDCREDEHAHEGK [P0A9A9]"
  total protein half-life in vivo / h: 2.35
- input sequence: "MSKKIAVLITDEFEDSEFTSPADEFRKAGHEVITIEKQAGKTVKGKKGEASVTIDKSIDEVTPAEFDALLLPGGHSPDYLRGDNRFVTFTRDFVNSGKPVFAICHGPQLLISADVIRGRKLTAVKPIIIDVKNAGAEFYDQEVVVDKDQLVTSRTPDDLPAFNREALRLLGA"
  total protein half-life in vivo / h: 3.22
- input sequence: "MILHAQAKHGKPGLPWLVFLHGFSGDCHEWQEVGEAFADYSRLYVDLPGHGGSAAISVDGFDDVTDLLRKTLVSYNILDFWLVGYSLGGRVAMMAACQGLAGLCGVIVEGGHPGLQNAEQRAERQRSDRQWVQRFLTEPLTAVFADWYQQPVFASLNDDQRRELVALRSNNNGATLAAMLEATSLAVQPDLRANLSARTFAFYYLCGERDSKFRALAAELAADCHVIPRAGHNAHRENPAGVIASLAQILRF"
  total protein half-life in vivo / h: 3.44
- input sequence: "MTQPLFLIGPRGCGKTTVGMALADSLNRRFVDTDQWLQSQLNMTVAEIVEREEWAGFRARETAALEAVTAPSTVIATGGGIILTEFNRHFMQNNGIVVYLCAPVSVLVNRLQAAPEEDLRPTLTGKPLSEEVQEVLEERDALYREVAHIIIDATNEPSQVISEIRSALAQTINC [P0A6E1]"
  total protein half-life in vivo / h: 2.43
- input sequence: "MENLARFLSTTLKQLRQQRGWSLSRLAEATGVSKAMLGQIERNESSPTVATLWKIATGLNVPFSTFISPPQSATPSVYDPQQQAMVITSLFPYDPQLCFEHFSIQMASGAISESTPHEKGVIEHVVVIDGQLDLCVDGEWQTLNCGEGVRFAADVTHIYRNGGEQTVHFHSLIHYPRS"
  total protein half-life in vivo / h: 3.4
- input sequence: "MKLAVYSTKQYDKKYLQQVNESFGFELEFFDFLLTEKTAKTANGCEAVCIFVNDDGSRPVLEELKKHGVKYIALRCAGFNNVDLDAAKELGLKVVRVPAYDPEAVAEHAIGMMMTLNRRIHRAYQRTRDANFSLEGLTGFTMYGKTAGVIGTGKIGVAMLRILKGFGMRLLAFDPYPSAAALELGVEYVDLPTLFSESDVISLHCPLTPENYHLLNEAAFEQMKNGVMIVNTSRGALIDSQAAIEALKNQKIGSLGMDVYENERDLFFEDKSNDVIQDDVFRRLSACHNVLFTGHQAFLTAEALTSISQTTLQNLSNLEKGETCPNELV"
  total protein half-life in vivo / h: 3.08
